assay: activity coefficient (dimensionless); of the first substance listed, at infinite dilution; xn = mol fraction of the nth substance listed; details: 358.15 K; 101 kPa; Liquid; Chromatography; x1 = 0
This section presents compounds with their documented activity coefficient values.
measure: activity coefficient

C=CCCCCCC [oct-1-ene] + CCCC[n+]1ccc(C)cc1.O=S(=O)([N-]S(=O)(=O)C(F)(F)F)C(F)(F)F = 10.4
C=CCCCCC [1-heptene] + CCCC[n+]1ccc(C)cc1.O=S(=O)([N-]S(=O)(=O)C(F)(F)F)C(F)(F)F = 7.99
CCCCCCCC [octane] + CCCC[n+]1ccc(C)cc1.O=S(=O)([N-]S(=O)(=O)C(F)(F)F)C(F)(F)F = 18.1
Cc1ccccc1C [1,2-dimethylbenzene] + CCCC[n+]1ccc(C)cc1.O=S(=O)([N-]S(=O)(=O)C(F)(F)F)C(F)(F)F = 1.32

---

experiment: activity coefficient (dimensionless); of the first substance listed, at infinite dilution; xn = mol fraction of the nth substance listed; settings: 308.15 K; 101 kPa; Liquid; Chromatography; x1 = 0
measure: activity coefficient

C=CCCC [1-pentene] + CCCC[n+]1ccc(C)cc1.O=S(=O)([N-]S(=O)(=O)C(F)(F)F)C(F)(F)F = 5.6
C1CCCCCC1 [cycloheptane] + CCCC[n+]1ccc(C)cc1.O=S(=O)([N-]S(=O)(=O)C(F)(F)F)C(F)(F)F = 10.1
c1ccsc1 [thiophene] + CCCC[n+]1ccc(C)cc1.O=S(=O)([N-]S(=O)(=O)C(F)(F)F)C(F)(F)F = 0.624
CCCCCCC [heptane] + CCCC[n+]1ccc(C)cc1.O=S(=O)([N-]S(=O)(=O)C(F)(F)F)C(F)(F)F = 18.9
CCCCCCCCCC [decane] + CCCC[n+]1ccc(C)cc1.O=S(=O)([N-]S(=O)(=O)C(F)(F)F)C(F)(F)F = 49.3
CC(C)=O [acetone] + CCCC[n+]1ccc(C)cc1.O=S(=O)([N-]S(=O)(=O)C(F)(F)F)C(F)(F)F = 0.406
CCCCCCCCC [nonane] + CCCC[n+]1ccc(C)cc1.O=S(=O)([N-]S(=O)(=O)C(F)(F)F)C(F)(F)F = 35.5
CCCCCCCC [octane] + CCCC[n+]1ccc(C)cc1.O=S(=O)([N-]S(=O)(=O)C(F)(F)F)C(F)(F)F = 25.8
C1CCCC1 [cyclopentane] + CCCC[n+]1ccc(C)cc1.O=S(=O)([N-]S(=O)(=O)C(F)(F)F)C(F)(F)F = 6.25

---

experiment: activity coefficient (dimensionless); of the first substance listed, at infinite dilution; xn = mol fraction of the nth substance listed; details: 368.15 K; 101 kPa; Liquid; Chromatography; x1 = 0
measure: activity coefficient

Cc1ccccc1 [toluene] + CCCC[n+]1ccc(C)cc1.O=S(=O)([N-]S(=O)(=O)C(F)(F)F)C(F)(F)F = 1.09
C#CCCCC [1-hexyne] + CCCC[n+]1ccc(C)cc1.O=S(=O)([N-]S(=O)(=O)C(F)(F)F)C(F)(F)F = 2.52
Cc1ccc(C)cc1 [1,4-dimethylbenzene] + CCCC[n+]1ccc(C)cc1.O=S(=O)([N-]S(=O)(=O)C(F)(F)F)C(F)(F)F = 1.51
C#CCCCCC [1-heptyne] + CCCC[n+]1ccc(C)cc1.O=S(=O)([N-]S(=O)(=O)C(F)(F)F)C(F)(F)F = 3.3
C#CCCC [1-pentyne] + CCCC[n+]1ccc(C)cc1.O=S(=O)([N-]S(=O)(=O)C(F)(F)F)C(F)(F)F = 1.95
CCCCO [butan-1-ol] + CCCC[n+]1ccc(C)cc1.O=S(=O)([N-]S(=O)(=O)C(F)(F)F)C(F)(F)F = 1.46
CCCO [propan-1-ol] + CCCC[n+]1ccc(C)cc1.O=S(=O)([N-]S(=O)(=O)C(F)(F)F)C(F)(F)F = 1.2
C1CCCCCC1 [cycloheptane] + CCCC[n+]1ccc(C)cc1.O=S(=O)([N-]S(=O)(=O)C(F)(F)F)C(F)(F)F = 7.14
CCCCCCCCCC [decane] + CCCC[n+]1ccc(C)cc1.O=S(=O)([N-]S(=O)(=O)C(F)(F)F)C(F)(F)F = 29.7
C=CCCC [1-pentene] + CCCC[n+]1ccc(C)cc1.O=S(=O)([N-]S(=O)(=O)C(F)(F)F)C(F)(F)F = 4.68
CCOCC [diethyl ether] + CCCC[n+]1ccc(C)cc1.O=S(=O)([N-]S(=O)(=O)C(F)(F)F)C(F)(F)F = 2.09
CCCCCCCCC [nonane] + CCCC[n+]1ccc(C)cc1.O=S(=O)([N-]S(=O)(=O)C(F)(F)F)C(F)(F)F = 22

---

experiment: activity coefficient (dimensionless); of the first substance listed, at infinite dilution; xn = mol fraction of the nth substance listed; conditions: 298.15 K; 101 kPa; Liquid; Chromatography; x1 = 0
measure: activity coefficient

C#CCCCCCC [1-octyne] + CCCC[n+]1ccc(C)cc1.O=S(=O)([N-]S(=O)(=O)C(F)(F)F)C(F)(F)F = 4.43
O [water] + CCCC[n+]1ccc(C)cc1.O=S(=O)([N-]S(=O)(=O)C(F)(F)F)C(F)(F)F = 4.86
C1CCCC1 [cyclopentane] + CCCC[n+]1ccc(C)cc1.O=S(=O)([N-]S(=O)(=O)C(F)(F)F)C(F)(F)F = 6.65
C#CCCCCC [1-heptyne] + CCCC[n+]1ccc(C)cc1.O=S(=O)([N-]S(=O)(=O)C(F)(F)F)C(F)(F)F = 3.2
C1CCCCCC1 [cycloheptane] + CCCC[n+]1ccc(C)cc1.O=S(=O)([N-]S(=O)(=O)C(F)(F)F)C(F)(F)F = 10.9
c1ccccc1 [benzene] + CCCC[n+]1ccc(C)cc1.O=S(=O)([N-]S(=O)(=O)C(F)(F)F)C(F)(F)F = 0.683
CCCCC [pentane] + CCCC[n+]1ccc(C)cc1.O=S(=O)([N-]S(=O)(=O)C(F)(F)F)C(F)(F)F = 12.9
C=CCCCC [hex-1-ene] + CCCC[n+]1ccc(C)cc1.O=S(=O)([N-]S(=O)(=O)C(F)(F)F)C(F)(F)F = 7.4
CCOCC [diethyl ether] + CCCC[n+]1ccc(C)cc1.O=S(=O)([N-]S(=O)(=O)C(F)(F)F)C(F)(F)F = 2.07
C1CCOC1 [tetrahydrofuran] + CCCC[n+]1ccc(C)cc1.O=S(=O)([N-]S(=O)(=O)C(F)(F)F)C(F)(F)F = 0.617

---

experiment: activity coefficient (dimensionless); of the first substance listed, at infinite dilution; xn = mol fraction of the nth substance listed; settings: 338.15 K; 101 kPa; Liquid; Chromatography; x1 = 0
measure: activity coefficient

C#CCCCCC [1-heptyne] + CCCC[n+]1ccc(C)cc1.O=S(=O)([N-]S(=O)(=O)C(F)(F)F)C(F)(F)F = 3.27
Cc1ccc(C)cc1 [1,4-dimethylbenzene] + CCCC[n+]1ccc(C)cc1.O=S(=O)([N-]S(=O)(=O)C(F)(F)F)C(F)(F)F = 1.42
c1ccccc1 [benzene] + CCCC[n+]1ccc(C)cc1.O=S(=O)([N-]S(=O)(=O)C(F)(F)F)C(F)(F)F = 0.75
C=CCCCC [hex-1-ene] + CCCC[n+]1ccc(C)cc1.O=S(=O)([N-]S(=O)(=O)C(F)(F)F)C(F)(F)F = 6.37
C#CCCC [1-pentyne] + CCCC[n+]1ccc(C)cc1.O=S(=O)([N-]S(=O)(=O)C(F)(F)F)C(F)(F)F = 1.89
CCCCCCCC [octane] + CCCC[n+]1ccc(C)cc1.O=S(=O)([N-]S(=O)(=O)C(F)(F)F)C(F)(F)F = 20.7
CCO [ethanol] + CCCC[n+]1ccc(C)cc1.O=S(=O)([N-]S(=O)(=O)C(F)(F)F)C(F)(F)F = 1.31
CCCCO [butan-1-ol] + CCCC[n+]1ccc(C)cc1.O=S(=O)([N-]S(=O)(=O)C(F)(F)F)C(F)(F)F = 1.87
C1CCOC1 [tetrahydrofuran] + CCCC[n+]1ccc(C)cc1.O=S(=O)([N-]S(=O)(=O)C(F)(F)F)C(F)(F)F = 0.663
CCOCC [diethyl ether] + CCCC[n+]1ccc(C)cc1.O=S(=O)([N-]S(=O)(=O)C(F)(F)F)C(F)(F)F = 2.08
CCCCC [pentane] + CCCC[n+]1ccc(C)cc1.O=S(=O)([N-]S(=O)(=O)C(F)(F)F)C(F)(F)F = 9.89
